# procedure_summary: self-splicing fitness, log relative to wild type (ln ratio); higher = more splicing; Tetrahymena group I intron in knt gene, E. coli kanamycin selection, DiMSum; sequences stand for … in CUCUCU…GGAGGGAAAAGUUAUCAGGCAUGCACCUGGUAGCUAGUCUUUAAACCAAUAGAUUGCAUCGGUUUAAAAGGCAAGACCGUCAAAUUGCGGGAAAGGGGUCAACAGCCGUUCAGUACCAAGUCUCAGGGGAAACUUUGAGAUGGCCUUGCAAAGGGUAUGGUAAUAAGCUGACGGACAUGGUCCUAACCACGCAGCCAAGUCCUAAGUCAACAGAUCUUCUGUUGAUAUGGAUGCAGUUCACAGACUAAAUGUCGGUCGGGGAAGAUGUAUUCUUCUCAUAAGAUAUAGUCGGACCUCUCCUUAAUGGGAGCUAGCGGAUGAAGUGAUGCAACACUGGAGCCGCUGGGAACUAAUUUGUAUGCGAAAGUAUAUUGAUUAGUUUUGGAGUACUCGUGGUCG;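 further: selection with 25 µg/mL kanamycin versus none on LB agar overnight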
# experimental_parameters: 30 °C
Would you kindly list self-splicing fitness (ln) for each of these sequences?
Reply with just the number.

Return reported self-splicing fitness (ln); argument: AUUAAGCAAUAUUACGUAAC
-2.12

Please report the recorded self-splicing fitness (ln) for UGAUAGCAAUAUUACGUGAA .
-3

Which value of self-splicing fitness (ln) has been reported for AUACAGCAAUAUUACGCUGU in the records?
-4.13

Sample CUUGAGCAAUAUUACGAAAG — what was its self-splicing fitness (ln)?
-2.3

State the recorded self-splicing fitness (ln) for this entry: ACAGAGCAAUAUUACGAUGC
-2.74

Recorded self-splicing fitness (ln) of AAAUAGCAAUAUUACGCAAU , please.
-2.44

Bench note: what self-splicing fitness (ln) did UUUCAGCAAUAUUACGCACU show?
-0.429

Give the measured self-splicing fitness (ln) of UAACAGCAAUAUUACGAGGU .
-4.14

// query self-splicing fitness (ln) value for entry UGCGAGCAAUAUUACGUCUC
-0.82

For the sequence shown here, UAAAAGCAAUAUUACGAUUA , give the reported self-splicing fitness (ln).
0.154

Any idea what its self-splicing fitness (ln) is? The sequence is AGUCAGCAAUAUUACGGCGG
-0.596

Which self-splicing fitness (ln) is reported for this sequence? GCAGAGCAAUAUUACGCGAG
-3.58

GET /values?readout=self-splicing fitness (ln)&item= AGCGAGCAAUAUUACGACCU
-0.933

Return reported self-splicing fitness (ln); argument: GUCUAGCAAUAUUACGCAGC
-2.29

# self-splicing fitness (ln) lookup, item GCCCAGCAAUAUUACGAACA
-1.58

I have this sequence here, CAAGAGCAAUAUUACGAUCG , and I need its recorded self-splicing fitness (ln).
-0.79

The origin of these recorded values is the supplement of paper PMC7877785.
